Origin of the recorded values: paper PMC5988292

Target: YFP-RhoA·GTPγS (UniProt P61586 1-193)
Sequence (P61586 whole entry): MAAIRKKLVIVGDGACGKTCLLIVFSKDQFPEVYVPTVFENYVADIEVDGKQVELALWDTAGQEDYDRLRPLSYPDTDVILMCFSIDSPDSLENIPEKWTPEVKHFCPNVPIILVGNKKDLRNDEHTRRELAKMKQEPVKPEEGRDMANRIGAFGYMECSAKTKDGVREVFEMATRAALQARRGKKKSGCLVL
Experiment: FRET; competition with CFP-PRG-PH
pIC50: −log10 of the molar value.
observable: pIC50

Some binders with recorded pIC50:
binder | resultValue
PH domain from LARG (domain or fragment) KMIHEGPLVWKVNRDKTIDLYTLLLEDILVLLQKQDDRLVLRCHSKILASTADSKHTFSPVIKLSTVLVRQVATDNKALFVISMSDNGAQIYELVAQTVSEKTVWQDLICRMAA | 4.98
PRG-PH (non-fluorescent PH domain of PDZRhoGEF) (domain or fragment) VKQTENRHRLEGYQKRLDATALERASNPLAAEFKSLDLTTRKMIHEGPLTWRISKDKTLDLHVLLLEDLLVLLQKQDEKLLLKCHSKTAVGSSDSKQTFSPVLKLNAVLIRSVATDKRAFFIICTSKLGPPQIYELVALTSSDKNTWMELLEEAVRNATRHP | 5.47

a. PH domain from p190RhoGEF (domain or fragment) TLLYDGLVYWKTATGRFKDILALLLTDVLLFLQEKDQKYIFAAVDQKPSVISLQKLIAREVANEERGMFLISASSAGPEMYEIHTNSKEERNNWMRRIQQAVE
b. p115-PH (PH domain of p115RhoGEF) (domain or fragment) KLVHEGPLTWRVTKDKAVEVHVLLLDDLLLLLQRQDERLLLKSHSRTLTPTPDGKTMLRPVLRLTSAMTREVATDHKAFYVLFTWDQEAQIYELVAQTVSERKNWCALITETAG
(Q) Exercise: compare a and b ; which one has the greater pIC50? Identify your selection by its label.
(A) a
